Entry source: ChEMBL document CHEMBL1126796

testMethodNotes: Half-life period of compound after intravenous dose of 0.3 mg/kg
Assay type: ADME, organism-based
Set-up: dose 0.3 mg/kg, route intravenous
conditionDescription: in vivo
propertyMeasured: half-life (h)

chemicalSmiles | propertyMeasured | resultUnit | testValue
CCCN(Cc1ccc(-c2ccccc2-c2nnn[nH]2)cc1)c1ncccc1C(=O)O | half-life | h | 9.5

----------
testMethodNotes: Bioavailability after oral dose of 3.87 mg/kg
Format: ADME, organism-based
conditionDescription: eutheria, in vivo

chemicalSmiles | bioavailability, %
CCCCN(Cc1ccc(-c2ccccc2-c2nn[nH]n2)cc1)c1ncncc1C(=O)O.Cl | 10.3

----------
# clearance per record follows
testMethodNotes: Plasma clearance after intravenous dose of 3.87 mg/kg
Assay type: ADME, organism-based
Parameters: dose 3.87 mg/kg, route intravenous
conditionDescription: read-out: Clp

chemicalSmiles | clearance, mL/min
CCc1nc2c(C)cc(C)nc2n1Cc1ccc(-c2ccccc2-c2nnn[nH]2)cc1 | 1.47
CCCCN(Cc1ccc(-c2ccccc2-c2nn[nH]n2)cc1)c1ncncc1C(=O)O.Cl | 0.85
